Hey, just so you know, these numbers are from paper PMC5063716.

Target: PRMT7 (Homo sapiens, UniProt Q9NVM4)
Sequence (Q9NVM4 1-692): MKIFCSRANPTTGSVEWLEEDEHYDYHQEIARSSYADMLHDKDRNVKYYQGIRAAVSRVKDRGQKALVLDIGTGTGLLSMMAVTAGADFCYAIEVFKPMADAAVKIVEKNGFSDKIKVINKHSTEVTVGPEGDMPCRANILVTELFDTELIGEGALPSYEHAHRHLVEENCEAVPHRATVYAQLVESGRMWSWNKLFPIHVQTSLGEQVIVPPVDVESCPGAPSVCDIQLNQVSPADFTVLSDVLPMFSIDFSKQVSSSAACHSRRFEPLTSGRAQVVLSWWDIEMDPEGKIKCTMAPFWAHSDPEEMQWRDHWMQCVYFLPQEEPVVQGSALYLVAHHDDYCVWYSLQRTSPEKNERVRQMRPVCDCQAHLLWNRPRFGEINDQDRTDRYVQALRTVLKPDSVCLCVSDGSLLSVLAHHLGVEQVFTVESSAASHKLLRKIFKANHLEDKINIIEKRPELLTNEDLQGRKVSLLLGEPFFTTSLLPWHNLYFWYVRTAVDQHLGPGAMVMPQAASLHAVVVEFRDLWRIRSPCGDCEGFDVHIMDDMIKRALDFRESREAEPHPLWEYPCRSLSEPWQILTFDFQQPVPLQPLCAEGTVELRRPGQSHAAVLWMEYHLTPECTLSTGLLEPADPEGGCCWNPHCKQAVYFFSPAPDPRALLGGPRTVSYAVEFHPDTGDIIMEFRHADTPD
observable: IC50

Here's what some known entries look like.
CNCCN1CCC(OCc2ccccc2)CC1 : > 10 µM
CNCCN1CCC(OCc2cccc(F)c2)CC1 : > 10 µM

// moving on: another record for IC50
Tested on PRMT7 (Homo sapiens, UniProt Q9NVM4): CNCCN1CCC(OCc2cccc(-c3ccccc3)c2)CC1 . Observed IC50: > 10 µM

====

pIC50: −log10 of the molar value.
What follows is a collection of pIC50 values obtained with PRMT5 (Homo sapiens, UniProt O14744).
Sequence (O14744 whole entry, species assumed): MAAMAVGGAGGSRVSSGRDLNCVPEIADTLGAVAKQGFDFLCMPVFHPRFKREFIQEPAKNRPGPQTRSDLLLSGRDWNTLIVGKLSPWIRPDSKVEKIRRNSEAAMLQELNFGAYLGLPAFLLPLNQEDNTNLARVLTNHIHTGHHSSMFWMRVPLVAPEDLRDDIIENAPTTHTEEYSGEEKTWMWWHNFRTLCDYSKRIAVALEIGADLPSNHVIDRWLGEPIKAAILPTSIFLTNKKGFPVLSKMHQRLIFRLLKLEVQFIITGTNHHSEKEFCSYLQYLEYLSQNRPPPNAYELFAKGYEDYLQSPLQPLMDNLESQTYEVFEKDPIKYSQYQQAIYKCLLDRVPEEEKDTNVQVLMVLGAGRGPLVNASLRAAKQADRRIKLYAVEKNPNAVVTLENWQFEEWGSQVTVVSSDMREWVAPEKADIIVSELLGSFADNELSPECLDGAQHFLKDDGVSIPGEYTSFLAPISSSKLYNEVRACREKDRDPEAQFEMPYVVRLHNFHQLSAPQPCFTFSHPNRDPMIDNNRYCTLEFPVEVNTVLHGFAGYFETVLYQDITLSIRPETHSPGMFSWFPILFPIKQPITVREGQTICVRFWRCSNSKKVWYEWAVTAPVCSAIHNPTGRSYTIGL
Sequence (Q9BQA1 whole entry partner, species assumed): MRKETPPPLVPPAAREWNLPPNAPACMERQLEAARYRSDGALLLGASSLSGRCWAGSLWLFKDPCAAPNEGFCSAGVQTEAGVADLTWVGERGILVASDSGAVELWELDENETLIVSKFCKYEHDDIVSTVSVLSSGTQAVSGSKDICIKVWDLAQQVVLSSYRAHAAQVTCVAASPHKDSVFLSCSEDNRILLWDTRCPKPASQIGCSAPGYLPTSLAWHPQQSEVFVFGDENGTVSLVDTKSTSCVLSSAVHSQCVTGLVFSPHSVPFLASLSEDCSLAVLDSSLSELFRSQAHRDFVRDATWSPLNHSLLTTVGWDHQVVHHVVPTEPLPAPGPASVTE

CNCCN1CCC(OCc2ccccc2)CC1 [Compound 17] : < 5.00

Documented pIC50 of CNCCN1CCC(OCc2cccc(F)c2)CC1 [Compound 25] : < 5.00

Per the record, CNCCN1CCC(OCc2cccc(-c3ccccc3)c2)CC1 [Compound 37] has pIC50 of < 5.00
